pIC50: −log10 of the molar value.
Below are pIC50 values measured for PI3Kγ (Homo sapiens).

# annotated cases, reported pIC50 shown
C[C@H](Nc1nc(N)ncc1C(F)(F)F)c1cc2cccc(Cl)c2c(C(=O)N2CCOCC2)n1 ... > 5.00
C[C@H](Nc1ccnc2ccnn12)c1cc2cccc(Cl)c2c(C(=O)NC2CCOCC2)n1 ... < 5.00
Cc1nc([C@H](C)Nc2ncnc3[nH]cnc23)cc2cccc(C(=O)N3C4CCC3COC4)c12 ... < 5.00
C[C@H](Nc1ncnc2cccnc12)c1cc2cccc(Cl)c2c(OC2CCN(S(C)(=O)=O)CC2)n1 ... > 5.00
C[C@H](Nc1ncnc2[nH]cnc12)c1cc2cccc(Cl)c2c(N2CCN(C)CC2)n1 ... < 5.00
C[C@H](Nc1ncnc2[nH]cnc12)c1cc2cccc(Cl)c2c(SCCN2CCCC2)n1 ... < 5.00

With PI3Kγ (Homo sapiens) as the test system, `C[C@H](Nc1ncnc2scnc12)c1cc2cccc(Cl)c2c(C(=O)N2C3CCC2COC3)n1` showed pIC50 of > 6.00

With PI3Kγ (Homo sapiens) as the test system, `CCN1CCN(c2nc([C@H](C)Nc3ncnc4[nH]cnc34)cc3cccc(Cl)c23)CC1` showed pIC50 of > 5.00

With PI3Kγ (Homo sapiens) as the test system, `Cc1cccc2cc([C@H](C)Nc3ncnc4[nH]cnc34)nc(N3CCN(C)CC3)c12` showed pIC50 of > 5.00

With PI3Kγ (Homo sapiens) as the test system, `Cc1cccc2cc([C@H](C)Nc3ncnc4[nH]cnc34)nc(C(=O)N3C4CCC3COC4)c12` showed pIC50 of > 5.00

With PI3Kγ (Homo sapiens) as the test system, `C[C@H](Nc1ncnc2[nH]cnc12)c1cc2cccc(Cl)c2c(S(=O)(=O)CCN2CCOCC2)n1` showed pIC50 of < 5.00

With PI3Kγ (Homo sapiens) as the test system, `C[C@@H]1CN(C(=O)c2nc([C@H](C)Nc3ncnc4[nH]cnc34)cc3cccc(Cl)c23)CCN1` showed pIC50 of < 5.00

With PI3Kγ (Homo sapiens) as the test system, `C[C@H](Nc1ncnc2cccnc12)c1cc2ccccc2c(C(=O)N2CCOCC2)n1` showed pIC50 of < 5.00

---

Below are IC50 values measured for PI3Kδ (Homo sapiens, UniProt O00329).

# annotated cases, reported IC50 shown
CC(C)N1CCC(Oc2nc([C@H](C)Nc3ncnc4[nH]cnc34)cc3cccc(-c4cnn(C)c4)c23)CC1 ... < 100 nM
CNC(=O)NCCOc1nc([C@H](C)Nc2ncnc3[nH]cnc23)cc2cccc(Cl)c12 ... < 1000 nM
Cc1nc(-c2nc([C@H](C)Nc3ncnc4[nH]cnc34)cc3cccc(Cl)c23)no1 ... < 1000 nM

Consider the record given below.
With PI3Kδ (Homo sapiens, UniProt O00329) as the test system, `C[C@H](Nc1ncnc2[nH]cc(C(N)=O)c12)c1cc2cccc(Cl)c2c(C(=O)N2C3CCC2COC3)n1` showed IC50 of < 100 nM

---

Below are IC50 values measured for UniProt O00329.

# annotated cases, reported IC50 shown
C[C@H](Nc1ccnn2ccnc12)c1cc2cccc(Cl)c2c(C(=O)N2C3CCC2COC3)n1 ... < 100 nM
C[C@H](Nc1ncnc2[nH]cc(F)c12)c1cc2cccc(Cl)c2c(C(=O)N2CCOCC2)n1 ... < 100 nM
C[C@H](Nc1ncnc2[nH]cnc12)c1cc2cccc(Cl)c2c(C(=O)NC2CCC(O)CC2)n1 (stereo partly shown) ... < 100 nM

Consider the record given below.
// field: IC50; key: `C[C@H](Nc1ncnc2[nH]cnc12)c1nc(CCN2CCOCC2)c2ccccc2c1F` ; value = < 1000 nM

---

Below are pIC50 values measured for PI3Kβ (Homo sapiens).
pIC50: −log10 of the molar value.

# annotated cases, reported pIC50 shown
C[C@H](Nc1ncnc2scnc12)c1cc2cccc(Cl)c2c(C(=O)N2CCS(=O)(=O)CC2)n1 [Compound 220] ... > 5.00
C[C@H](Nc1ccnn2ccnc12)c1cc2cccc(Cl)c2c(OCCN2CCCC2)n1 [Compound 182] ... < 5.00
C[C@H](Nc1ccnn2ccnc12)c1cc2cccc(Cl)c2c(C(=O)NC2CCOCC2)n1 [Compound 180] ... < 5.00

Consider the record given below.
With PI3Kβ (Homo sapiens) as the test system, Cc1nc([C@H](C)Nc2ncnc3[nH]cnc23)cc2cccc(C(=O)N3CCOCC3)c12 [Compound 198] showed pIC50 of < 5.00

---

Below are IC50 values measured for UniProt:P42338.

C[C@H](Nc1ncnc2[nH]cnc12)c1cc2cccc(C(F)(F)F)c2c(N2CCN(C)CC2)n1 ... < 10 µM
Cc1nc([C@H](C)Nc2ncnc3[nH]cnc23)cc2cccc(C(=O)N3C4CCC3COC4)c12 ... > 10 µM
C[C@H](NC(=O)c1nccnc1N)c1cc2cccc(Cl)c2c(C(=O)N2CCOCC2)n1 ... < 10 µM

Consider the record given below.
With UniProt:P42338 as the test system, `C[C@H](Nc1ncnc2[nH]cnc12)c1cc2cccc(-c3cnn(C)c3)c2c(Cl)n1` showed IC50 of > 10 µM

---

Below are IC50 values measured for UniProt P42338.

# annotated cases, reported IC50 shown
C[C@H](Nc1ncnc2scnc12)c1cc2cccc(Cl)c2c(C(=O)NC2CCN(C)CC2)n1 ... > 10 µM
C[C@H](Nc1ncnc2scnc12)c1cc2cccc(Cl)c2c(C(=O)N2CCOC[C@@H]2C)n1 ... < 10 µM
Cc1cccc2cc([C@H](C)Nc3ncnc4[nH]cnc34)nc(C(=O)N3C4CCC3COC4)c12 ... > 10 µM

With UniProt P42338 as the test system, `C[C@H](Nc1ncnc2cccnc12)c1cc2cccc(Cl)c2c(C(=O)N2C3CCC2COC3)n1` showed IC50 of < 10 µM

---

Known IC50 of a selection of compounds
# TESTED ON: PI3Kβ (Homo sapiens)
# Sequence (P42338 whole entry): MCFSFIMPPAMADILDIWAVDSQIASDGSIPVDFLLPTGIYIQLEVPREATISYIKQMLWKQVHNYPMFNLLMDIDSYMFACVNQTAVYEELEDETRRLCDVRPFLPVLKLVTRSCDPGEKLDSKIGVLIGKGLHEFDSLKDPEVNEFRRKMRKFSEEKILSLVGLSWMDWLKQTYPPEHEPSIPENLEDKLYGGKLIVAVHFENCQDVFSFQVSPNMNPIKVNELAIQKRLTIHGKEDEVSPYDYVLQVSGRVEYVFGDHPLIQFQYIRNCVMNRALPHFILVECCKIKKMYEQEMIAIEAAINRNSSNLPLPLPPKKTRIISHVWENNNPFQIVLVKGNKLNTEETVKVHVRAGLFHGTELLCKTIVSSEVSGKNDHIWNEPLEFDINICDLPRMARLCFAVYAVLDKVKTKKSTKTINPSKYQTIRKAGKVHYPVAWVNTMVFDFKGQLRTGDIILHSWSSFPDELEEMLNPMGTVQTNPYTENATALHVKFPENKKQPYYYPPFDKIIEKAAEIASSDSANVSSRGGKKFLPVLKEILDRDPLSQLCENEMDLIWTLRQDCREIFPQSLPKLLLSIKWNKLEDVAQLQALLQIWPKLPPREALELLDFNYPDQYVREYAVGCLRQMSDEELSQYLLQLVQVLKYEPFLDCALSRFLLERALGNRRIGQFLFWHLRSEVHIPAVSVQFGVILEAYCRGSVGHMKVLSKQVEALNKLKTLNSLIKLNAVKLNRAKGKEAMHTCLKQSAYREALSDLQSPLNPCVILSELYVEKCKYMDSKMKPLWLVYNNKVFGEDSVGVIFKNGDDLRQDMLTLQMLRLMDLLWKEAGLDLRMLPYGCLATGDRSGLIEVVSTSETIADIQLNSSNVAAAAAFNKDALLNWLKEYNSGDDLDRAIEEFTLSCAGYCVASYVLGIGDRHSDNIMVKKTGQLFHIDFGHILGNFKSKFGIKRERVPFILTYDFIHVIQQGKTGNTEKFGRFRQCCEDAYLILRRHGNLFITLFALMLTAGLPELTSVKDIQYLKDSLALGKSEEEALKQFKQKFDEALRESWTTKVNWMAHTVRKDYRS
# Sequence (P27986 whole entry partner): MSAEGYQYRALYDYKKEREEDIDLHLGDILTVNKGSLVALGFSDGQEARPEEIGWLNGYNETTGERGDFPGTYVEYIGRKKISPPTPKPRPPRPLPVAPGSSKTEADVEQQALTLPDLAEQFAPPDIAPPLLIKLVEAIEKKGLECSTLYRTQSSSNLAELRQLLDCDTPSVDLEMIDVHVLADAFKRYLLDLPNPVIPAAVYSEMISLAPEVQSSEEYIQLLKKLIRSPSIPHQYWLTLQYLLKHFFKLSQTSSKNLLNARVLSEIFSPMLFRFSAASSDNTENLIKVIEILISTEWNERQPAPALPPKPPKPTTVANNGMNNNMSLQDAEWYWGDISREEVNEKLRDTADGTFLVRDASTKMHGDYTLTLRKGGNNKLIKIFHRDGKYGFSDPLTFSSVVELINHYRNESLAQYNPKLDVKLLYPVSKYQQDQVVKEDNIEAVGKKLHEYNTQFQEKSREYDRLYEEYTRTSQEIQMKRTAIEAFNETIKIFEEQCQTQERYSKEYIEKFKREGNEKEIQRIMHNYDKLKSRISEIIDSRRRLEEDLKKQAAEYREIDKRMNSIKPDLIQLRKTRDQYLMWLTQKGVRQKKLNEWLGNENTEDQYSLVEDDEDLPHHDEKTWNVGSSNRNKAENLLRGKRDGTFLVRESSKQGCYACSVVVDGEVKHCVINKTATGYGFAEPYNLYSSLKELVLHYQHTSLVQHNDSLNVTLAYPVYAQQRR

C[C@H](Nc1ncnc2[nH]cnc12)c1cc2cccc(Cl)c2c(C(=O)N2CCN[C@@H](C)C2)n1 [Compound 18] ... < 1 µM
C[C@H](Nc1ncnc2scnc12)c1cc2cccc(Cl)c2c(C(=O)N2C3CCC2COC3)n1 [Compound 124] ... < 1 µM
Cc1nc([C@H](C)Nc2ncnc3[nH]cnc23)cc2cccc(-c3cnn(C)c3)c12 [Compound 171] ... > 10 µM
C[C@H](Nc1ncnc2[nH]cc(C#N)c12)c1cc2cccc(Cl)c2c(C(=O)N2C3CCC2COC3)n1 [Compound 206] ... < 10 µM
C[C@H](Nc1ncnc2[nH]cnc12)c1cc2cccc(Cl)c2c(OCC(=O)N2CCN(C)CC2)n1 [Compound 42] ... < 10 µM
C[C@H](Nc1ncnc2[nH]cnc12)c1cc2cccc(Cl)c2c(CN2CCOCC2)n1 [Compound 7] ... > 10 µM

With PI3Kβ (Homo sapiens) as the test system, C[C@H](Nc1ncnc2[nH]cnc12)c1cc2cccc(Cl)c2c(S(=O)(=O)CCN2CCOCC2)n1 [Compound 134] showed IC50 of > 10 µM

---

Below are IC50 values measured for PI3Kβ (Homo sapiens, UniProt P42338).

# annotated cases, reported IC50 shown
C[C@H](Nc1ncnc2[nH]cnc12)c1cc2cccc(Cl)c2c(C(=O)N2C3CCC2COC3)n1 ... < 10 µM
C[C@H](Nc1ncnc2[nH]cnc12)c1cc2cccc(Cl)c2c(N2CCN(C)CC2)n1 ... < 10 µM
C[C@H](Nc1ncnc2cccnc12)c1cc2cccc(Cl)c2c(CCN2CCOCC2)n1 ... < 1 µM

With PI3Kβ (Homo sapiens, UniProt P42338) as the test system, `Cc1cccc2cc([C@H](C)Nc3ncnc4cccnc34)nc(C(=O)N3C4CCC3COC4)c12` showed IC50 of < 10 µM

With PI3Kβ (Homo sapiens, UniProt P42338) as the test system, `C[C@H](Nc1ncnc2scnc12)c1cc2cccc(Cl)c2c(C(=O)N(C)C)n1` showed IC50 of < 10 µM

With PI3Kβ (Homo sapiens, UniProt P42338) as the test system, `C[C@H](Nc1ccnn2ccnc12)c1cc2cccc(Cl)c2c(C(=O)N2C3CCC2COC3)n1` showed IC50 of < 10 µM

With PI3Kβ (Homo sapiens, UniProt P42338) as the test system, `C[C@H](Nc1ncnc2[nH]cnc12)c1cc2cccc(Cl)c2c(CC(=O)N2CCN(C)CC2)n1` showed IC50 of > 10 µM

With PI3Kβ (Homo sapiens, UniProt P42338) as the test system, `C[C@H](Nc1ncnc2cccnc12)c1cc2cccc(-c3cnn(C)c3)c2c(N2CCN(C)CC2)n1` showed IC50 of < 10 µM

With PI3Kβ (Homo sapiens, UniProt P42338) as the test system, `CC(C)N1CCN(c2nc([C@H](C)Nc3ncnc4[nH]cnc34)cc3cccc(Cl)c23)CC1` showed IC50 of < 10 µM

With PI3Kβ (Homo sapiens, UniProt P42338) as the test system, `C[C@H](Nc1ncnc2[nH]cnc12)c1cc2c(F)cccc2c(CCN2CCOCC2)n1` showed IC50 of > 10 µM

With PI3Kβ (Homo sapiens, UniProt P42338) as the test system, `C[C@H](Nc1ncnc2[nH]cnc12)c1cc2cccc(Cl)c2c(C(=O)N2CC3CCC(C2)O3)n1` showed IC50 of < 10 µM

With PI3Kβ (Homo sapiens, UniProt P42338) as the test system, C[C@H](Nc1ncnc2scnc12)c1cc2cccc(Cl)c2c(C(=O)NC2CCOC2)n1 (stereo partly drawn) showed IC50 of > 10 µM

With PI3Kβ (Homo sapiens, UniProt P42338) as the test system, `C[C@H](Nc1ncnc2cccnc12)c1cc2cccc(-c3cnn(C)c3)c2c(C(=O)N2C3CCC2COC3)n1` showed IC50 of > 10 µM

With PI3Kβ (Homo sapiens, UniProt P42338) as the test system, `C[C@H](Nc1ncnc2[nH]cnc12)c1cc2cccc(-c3cnn(C)c3)c2c(OCCN2CCCC2)n1` showed IC50 of < 10 µM

With PI3Kβ (Homo sapiens, UniProt P42338) as the test system, `C[C@H](Nc1ncnc2[nH]cnc12)c1nc(CCN2CCOCC2)c2ccccc2c1F` showed IC50 of > 10 µM
